experiment: CCTE_Shafer_MEA_acute_per_network_burst_spike_number_std: CCTE's Neural Acute Assay for Standard Deviation of Number of Spikes in a Network Burst, Shafer Lab (AID 2284020);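 also: fitted for decrease in spike-number SD versus DMSO so actives lower it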
Calls of active or inactive are those of the source. The calls were made as follows: active = hit-call score of the fitted dose curve at least 0.9, where 1 is the maximum; inactive = score below 0.9.
Outcomes you can answer with include only these: t (active), f (inactive)

Ask: Tell me the recorded outcome of this test for CCC(C)c1ccc(O)cc1 (stereo not given) .
Reply: t

Ask: Call for entry `Cc1cc(N=Nc2ccccc2C)ccc1N` :
Reply: f

Ask: Write down the call the test reported for this compound. Item: `Clc1ccc(C(c2ccc(Cl)cc2)C(Cl)Cl)cc1`
Reply: t

Ask: Recorded test call requested for `CCN(CC)N=O`
Reply: f

Ask: Identify the outcome logged in this assay for the compound shown: `CC(C)(O)c1cnn2c(-c3ccc(F)c(-c4c(F)cccc4C#N)c3)cnc2n1`
Reply: t

Cited source for all entries: PubChem BioAssay (EPA / NIEHS)
